- System: SW-620
- methodNotes: NCI tumour cell line growth inhibition, 48 h
The source made the active and inactive calls. Cut-off read from the data, not from the text of the source: active = GI50 up to about 1.1 µM and inactive = higher.
Response enum: active, inactive

QUERY: Hey, what did the test say about O=C1NN=C(O)C2C3c4ccccc4C(c4ccccc43)C12 (stereo not drawn) ?
RESULT: inactive

QUERY: Recorded test outcome, item CC(C)/C=C1\CCC(CN2CCOCC2)C1=O (stereo not drawn)
RESULT: inactive

QUERY: # lookup: test call for CC(C)/C=N\n1c(N)c(C#N)c(C#N)c1C(C)C
RESULT: inactive

QUERY: Short answer needed: outcome of this test for [O-]c1c2c(nn1-c1ccc(F)cc1)c1ccccc1c[n+]2Cc1ccccc1 ?
RESULT: inactive

QUERY: Identify the outcome logged in this assay for the molecule shown: COC(=O)c1c(O)ccc2c1c1c(n2Cc2cc(OC)cc(OC)c2)C(=O)c2ccccc2C1
RESULT: inactive

QUERY: // outcome(item) with item = C[N+](C)(N)Cc1csc(-c2ccc(Cl)cc2)n1
RESULT: inactive

QUERY: Per the assay record, what outcome was assigned to COc1cc(C2c3cc4c(cc3[C@@H](NCCN(C)C)C3COC(=O)[C@H]23)OCO4)cc(OC)c1O (stereo partly drawn) ?
RESULT: active

QUERY: Which outcome was entered for the molecule O=C(CCC(=O)Nc1cccc(Cl)c1)CC(=O)c1ccc(Cl)cc1 in this test?
RESULT: inactive

QUERY: For C1CN(c2nc3c(nnc4nc(N5CCOCC5)sc43)s2)CCO1 , which call appears in the assay record?
RESULT: inactive

QUERY: Just curious, what result did ClCC[N+]12CC[N+](CCCl)(CC1)C2 get here?
RESULT: inactive

QUERY: What did this assay record as the result for C=CC[C@H]1O[Si](C(C)(C)C)(C(C)(C)C)[C@H](C)[C@H]1C ?
RESULT: inactive

QUERY: Which outcome was assigned to CCCC1(CC(=O)O)OCCc2c1[nH]c1ccccc21 (stereo not drawn) [PRODOLIC ACID] in this test?
RESULT: inactive

QUERY: Given Cc1cc(N(CCC#N)CCC#N)ccc1/C=C1\SC(=S)NC1=O , state the outcome it received in this test.
RESULT: inactive

QUERY: How did this test come out for Nc1nc2[nH]c(=O)cnc2c(=O)[nH]1 [ISOXANTHOPTERIN] ?
RESULT: inactive

QUERY: Query: recorded result category for CC(=O)C(=C(I)I)c1ccccc1 in this test
RESULT: inactive

QUERY: Entry CCOC(=O)[C@@]12C[C@](/C=C/OC)(O[Si](C)(C)C)[C@@]13c1cc(OC)c(OC)cc1CCN3C(=O)C2=O : call = ?
RESULT: inactive

QUERY: Hi, do you know how COc1ccc(C2Oc3ccc(O)cc3[C@@H]2C)cc1OC (stereo partly drawn) came out in this test?
RESULT: inactive

QUERY: # fetch the recorded call for COc1ccccc1CNCc1nc2ccccc2[nH]1 here
RESULT: inactive

QUERY: Called result for C=C(O)c1ccccc1C#Cc1ccccc1C(=O)OC
RESULT: inactive

QUERY: What did the test return for O=C(Nc1ccccc1-c1n[nH]c(S)nc1=O)C(F)(F)F ?
RESULT: inactive

QUERY: Recorded test call requested for Cc1ccc(S(=O)(=O)NC(C(=O)O)C(C)C)cc1 (stereo not drawn)
RESULT: inactive

QUERY: Check the results log: what was the call for Oc1ccc(N=C2CCC(=C(c3ccccc3)c3ccc(Nc4ccc(O)cc4)cc3)CC2)cc1 ?
RESULT: inactive

QUERY: Check the results log: what was the call for COc1ccc(C2CC(C)=Nc3c(O)nc(S)nc3N2)cc1 (stereo not drawn) ?
RESULT: inactive

====

- System: DMS-273
- methodNotes: NCI tumour cell line growth inhibition, 48 h
Active and inactive are the calls of the source. Rule as the data show it: active = GI50 up to about 1.1 µM and inactive = higher.
Answer with one of the outcomes true for active, false for inactive

QUERY: Outcome? CN(CC(=O)O)S(=O)(=O)c1ccc(Cl)cc1
RESULT: false

QUERY: Could you please tell me the result logged for C/C(=N\NS(=O)(=O)c1ccc([N+](=O)[O-])cc1)c1ccc[n+]([O-])n1 in this assay?
RESULT: true

QUERY: Per the records of this test, what outcome belongs to Cc1ccc2c(c1)CN1c3ccc(C)cc3CN2C1c1ccccc1O ?
RESULT: false

QUERY: Lab log entry: CC12CCCC(C#N)(C1)OC2=O (stereo unspecified) — outcome as called in the assay?
RESULT: false

QUERY: Given CC(=O)NNc1nc(C)c(C(=O)/C=C/c2cccc([N+](=O)[O-])c2)s1 , state the outcome it received in this test.
RESULT: false

QUERY: Hi team, can someone confirm the assay call for O=c1n(C2CCCCC2)c(=C(Cl)Cl)c(=C(Cl)Cl)n1C1CCCCC1 ?
RESULT: false

QUERY: Could you kindly confirm the outcome this assay logged for CN1CCOC(c2ccccc2)O1 (stereo unspecified) ?
RESULT: false

QUERY: Answer briefly: the call reported for COc1ccc(Br)c2c1CC(C(=O)O)CC2 (stereo unspecified) in this assay.
RESULT: false

QUERY: For COc1ccc(/C=C/c2cc(OC)c(O[Si](C)(C)C(C)(C)C)c(OC)c2)cc1 , which call appears in the assay record?
RESULT: false

QUERY: How was CC1CN1C(=O)NCCCCCCNC(=O)N1CC1C (stereo unspecified) classified in this test?
RESULT: false

QUERY: Answer briefly: the call reported for Cc1ncc(CBr)c(CBr)c1O in this assay.
RESULT: false

QUERY: Short answer needed: outcome of this test for CCCCCCCCCCCCCCCCCCOCC(COP(=O)([O-])OCC[N+](C)(C)C)OC (stereo unspecified) ?
RESULT: false

QUERY: Lab log entry: O=NN1C(c2ccccc2)C2CCCC(C2=O)C1c1ccccc1 (stereo unspecified) — outcome as called in the assay?
RESULT: false

QUERY: Test call, this molecule: CCN1C(=O)N2C(OC)c3ccccc3C(Br)C2(OC)C1=O (stereo unspecified)
RESULT: false

QUERY: Hi, do you know how CCOC(=O)C1C=C2O[C@@H]3OC4(CCCCC4)O[C@@H]3C2[C@H]2C(=O)C=CC(=O)[C@@]12C(=O)OC (stereo partly specified) came out in this test?
RESULT: false

QUERY: Tell me the recorded outcome of this test for COc1ccc(C2Oc3ccc(O)cc3[C@@H]2C)cc1OC (stereo partly specified) .
RESULT: false

QUERY: # fetch the recorded call for Cn1c(=O)c2ccccc2c2nc3ccccc3nc21 here
RESULT: false

QUERY: Per the records of this test, what outcome belongs to COC(=O)C1=C(\O)C[C@@]2(C)CC[C@@H](C(=O)OC)C2C/C=C\1C(=O)OC (stereo partly specified) ?
RESULT: false

QUERY: Recorded call for Cc1c(N)nc(C2CC(=O)N2CC(N)C(N)=O)nc1C(=O)NC(C(=O)NC(C)C(O)C(C)C(=O)NC(C(=O)NCCc1nc(-c2nc(C(=O)NCCNCC(C)O)cs2)cs1)C(C)O)C(OC1OC(CO)C(O)C(O)C1OC1OC(CO)C(O)C(OC(N)=O)C1O)c1c[nH]cn1 (stereo unspecified) ?
RESULT: true

QUERY: Entry O=C1CC2CC=C[C@H]3c4cc5c(cc4C(=O)N1C23)OCO5 (stereo partly specified) : call = ?
RESULT: false

QUERY: Can you look up the reported call for COc1ccc2c(c1OC)C(=O)C2 for me?
RESULT: false

====

- Test system: TK-10
- methodNotes: NCI tumour cell line growth inhibition, 48 h
Active and inactive are the calls of the source. Rule as the data show it: active = GI50 up to about 1.1 µM and inactive = higher.
Answer each item with its documented GI50.

Lab note: measured GI50 of CN(C)CCNc1ccc2c(=O)n(CCN(C)C)c(=O)n3c4ccccc4c(=O)c1c23 was 0.392 µM (active)

According to the records, this compound COc1ccc(OC)c(C2CCc3nc4nc(N)nc(N)c4cc3C2)c1 (stereo not given) displays GI50 of 9.77 µM (inactive)

Input COc1ccc2c(c1)C(=O)CC1c3cnccc3C(=O)N21 (stereo not given) . Output GI50: > 100 µM (inactive)

Notebook: O=c1c2ccccc2nc(-c2cccc(Cl)c2)n1NC1OC(CO)C(O)C(O)C1O (stereo not given) , GI50 read as > 100 µM (inactive)

GET /value?item= CC(C)[Si]1(C(C)C)OCC2OC(N3C(=O)NC(=O)C[C@@H]3C(O)c3ccccc3)CC2O[Si](C(C)C)(C(C)C)O1 (stereo not given in full) &field=GI50 returns 9.89 µM (inactive)

According to the records, this compound C/C(CC(=O)Nc1cc(Cl)c(Cl)cc1Cl)=N\NC(N)=O displays GI50 of > 100 µM (inactive)

Form: compound = CC1(C)CC(=O)C(=CNC(=O)c2ccncc2)C(=O)C1 ; GI50 = > 100 µM (inactive)

In plain terms, C=C(Br)CN(C#N)CC(=C)Br has a documented GI50 of > 100 µM (inactive)

So, C[n+]1cn(-c2nc3ccccc3nc2[N-]S(=O)(=O)c2ccccc2)c2ccccc21 ? Its GI50 was > 100 µM (inactive)

Form: compound = CN(CC(=O)O)Cc1oc(CO)cc(=O)c1O ; GI50 = > 100 µM (inactive)
